Each recorded value in this set is attributed to paper PMC8434889.

test system: LPS-induced B cell proliferation of murine splenocytes; assay: LPS-induced B-cell proliferation; assay type: cell-based, mouse; details: Mus musculus, B-cell, 48 h, read-out: LPS-induced B-cell proliferation IC50
Readings of IC50 for the listed compounds
Numbers only; they are read as µM.

State its IC50 for this compound: CCN(CC)CCCC(C)Nc1ccnc2cc(Cl)ccc12 (centres unmarked) [Compound 1, chloroquine, reference compound]
14.6

Now let's try a different one.
State its IC50 for this compound: CCN(CCO)CCCC(C)Nc1ccnc2cc(Cl)ccc12 (centres unmarked) [Compound 2, hydroxychloroquine, reference compound]
14.2

###

system: IFN-γ; assay: Con A-induced cytokine production in splenocytes, IFN-γ; type: cell-based; conditions: Mus musculus, Splenocyte, 48 h, read-out: IC50 IFN-γ
pIC50: −log10 of the molar value.
Assign Yes to entries whose pIC50 meets or exceeds 6; assign No to the rest.

Worked set:
Kindly determine if pIC50 recorded for CCN(CCCC(C)Nc1ccnc2cc(Cl)ccc12)CCNC(=O)C(F)(F)C1CCN(CCOCCOC)CC1 (stereo not drawn) [Compound 10] is above or exactly 6.
Yes

Given CCN(CCO)CCCC(C)Nc1ccnc2cc(Cl)ccc12 (stereo not drawn) [Compound 2, hydroxychloroquine, reference compound] , state whether its pIC50 is at least 6.
Yes

Assess whether reported pIC50 for CCN(CCCC(C)Nc1ccnc2cc(Cl)ccc12)CCNC(=O)C(F)(F)C1CCN(C(=O)C2OC(OC)C3OC(C)(C)OC23)CC1 (stereo not drawn) [Compound 11] sits at 6 or higher.
Yes

Reported pIC50 at or above 6? CCN(CCCC(C)Nc1ccnc2cc(Cl)ccc12)CCNC(=O)CCOCCOCCOCCOCCOCC(=O)Nc1ccc2c(c1)OC(F)(F)O2 (stereo not drawn) [Compound 15]
No

Now look at this entry.
Given the entry CCN(CC)CCCC(C)Nc1ccnc2cc(Cl)ccc12 (stereo not drawn) [Compound 1, chloroquine, reference compound] , answer whether its pIC50 meets or surpasses 6.
Yes

###

test: Splenocytes cytotoxicity; assay type: cell-based; conditions: female, BALB/c, mouse, murine splenocytes
Field: label. Allowed values: MET (CC50 at 48 h < 8 µM) or NOT MET (CC50 at 48 h >= 8 µM).

Example results:
Is 8 µM strictly greater than the compound's reported CC50 at 48 h? compound: CCN(CC)CCCC(C)Nc1ccnc2cc(Cl)ccc12 (stereo not drawn) [Compound 1, chloroquine, reference compound]
NOT MET

Is CC50 at 48 h of CCN(CCCC(C)Nc1ccnc2cc(Cl)ccc12)CCNC12CC(N)(C1)C2 (stereo not drawn) strictly below 8 µM?
NOT MET

Determine whether this compound shows CC50 at 48 h lower than 8 µM (ties excluded): CCN(CCCC(C)Nc1ccnc2cc(Cl)ccc12)CCNC(=O)C(F)(F)C1CCN(CC(O)C(F)(F)F)CC1 (stereo not drawn)
MET

Continuing:
# TODO verify CC50 at 48 h < 8 µM strictly for this compound: CCN(CCCC(C)Nc1ccnc2cc(Cl)ccc12)CCNC(=O)CCOCCOCCOCCOCCOCC(=O)Nc1ccc2c(c1)OC(F)(F)O2 (stereo not drawn)
MET

Decide: CC50 at 48 h of CCN(CCCC(C)Nc1ccnc2cc(Cl)ccc12)CCNC(=O)C(F)(F)C1CCN(C(=O)C2OC(OC)C3OC(C)(C)OC23)CC1 (stereo not drawn) strictly below 8 µM?
NOT MET

CC50 at 48 h strictly < 8 µM for this compound? CCN(CCO)CCCC(C)Nc1ccnc2cc(Cl)ccc12 (stereo not drawn) [Compound 2, hydroxychloroquine, reference compound]
NOT MET

# check: CC50 at 48 h < 8 µM for CCN(CCCC(C)Nc1ccnc2cc(Cl)ccc12)CCNC1CNC1 (stereo not drawn)
NOT MET

State whether 8 µM exceeds CC50 at 48 h recorded for CCN(CCCC(C)Nc1ccnc2cc(Cl)ccc12)CCNC(=O)C(F)(F)C1CCNCC1 (stereo not drawn) .
NOT MET
